Biological target: Urotensin-2 receptor (Rattus norvegicus) (UniProt P49684)
Sequence (whole entry): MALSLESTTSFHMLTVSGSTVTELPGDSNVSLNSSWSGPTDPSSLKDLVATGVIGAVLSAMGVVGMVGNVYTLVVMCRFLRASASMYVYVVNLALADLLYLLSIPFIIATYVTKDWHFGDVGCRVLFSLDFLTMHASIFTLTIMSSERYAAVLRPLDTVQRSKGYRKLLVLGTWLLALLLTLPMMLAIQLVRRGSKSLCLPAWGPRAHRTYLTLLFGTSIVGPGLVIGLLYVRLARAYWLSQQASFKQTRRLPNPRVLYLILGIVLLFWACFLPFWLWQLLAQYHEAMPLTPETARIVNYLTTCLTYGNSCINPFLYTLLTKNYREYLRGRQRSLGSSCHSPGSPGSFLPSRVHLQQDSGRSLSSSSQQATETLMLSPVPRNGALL
Assay: Modulation of urotensin-2 receptor in Sprague-Dawley rat thoracic aortic ring assessed as human urotensin-2 Emax for induction of aortic ring contraction at 10 uM preincubated for 15 mins followed by human urotensin-2 addition (reference value: 116 +/- 3%)
Recorded measurements of Emax, one per entry
measured metric: Emax (%)

                               smiles_entry                       experimental_target  measured_metric  measured_value
0  NCCC[C@@H]1N=C(c2cccc3ccccc23)c2[nH]c(C(=O)O)cc2N(CCc2ccc(O)cc2)C1=O  Urotensin-2 receptor (Rattus norvegicus) (UniProt P49684)             Emax              74
1  NCCC[C@@H]1N=C(c2ccc(-c3ccccc3)cc2)c2[nH]c(C(=O)O)cc2N(CCc2ccc(O)cc2)C1=O  Urotensin-2 receptor (Rattus norvegicus) (UniProt P49684)             Emax              97
2  NCCC[C@@H]1N[C@H](c2cccc3ccccc23)c2[nH]c(C(=O)O)cc2N(CCc2ccc(O)cc2)C1=O  Urotensin-2 receptor (Rattus norvegicus) (UniProt P49684)             Emax             139
3  NCCC[C@@H]1N[C@@H](c2cccc3ccccc23)c2[nH]c(C(=O)O)cc2N(CCc2ccc(O)cc2)C1=O  Urotensin-2 receptor (Rattus norvegicus) (UniProt P49684)             Emax             148
4  NCCCC[C@@H]1N[C@H](c2ccc3ccccc3c2)c2[nH]c(C(=O)O)cc2N(CCc2ccc(O)cc2)C1=O  Urotensin-2 receptor (Rattus norvegicus) (UniProt P49684)             Emax             175
5  NCCCC[C@@H]1N=C(c2ccc3ccccc3c2)c2[nH]c(C(=O)O)cc2N(CCc2ccc(O)cc2)C1=O  Urotensin-2 receptor (Rattus norvegicus) (UniProt P49684)             Emax              80
6  NCCC[C@@H]1N=C(c2ccc3ccccc3c2)c2[nH]c(C(=O)O)cc2N(CCc2ccc(O)cc2)C1=O  Urotensin-2 receptor (Rattus norvegicus) (UniProt P49684)             Emax              70
7  NCCCC[C@@H]1N[C@@H](c2ccc3ccccc3c2)c2[nH]c(C(=O)O)cc2N(CCc2ccc(O)cc2)C1=O  Urotensin-2 receptor (Rattus norvegicus) (UniProt P49684)             Emax             194
